The reader will find reported normalized growth values listed item by item below.
- method: chemical genetic growth profiling, strain panel (AID 1159580);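 note: tested at 20 µM; growth read once vehicle control cultures reached saturation at 30 °C; 1 = growth at the plate median or of vehicle wells; lower values mean less growth of the strain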
- test.parameters: S. cerevisiae deletion strains, growth OD, locus YHR094C, strain hxt1, hits give low values
Hit rate of the full screen: of about 5,500 compounds, about 2,000 (36%) were called active. Not shown: some 18% with an inconclusive outcome. The list shows a part of the results.
Enter the number alone.

IN: Give the measured normalized growth of CC1CC2C3CC(F)C4=CC(=O)C=CC4(C)C3(F)C(O)CC2(C)C1C(=O)COC(=O)C(C)(C)C (stereo not given) .
OUT: 1.04

IN: Likewise for COc1cc(OC)c(OC)cc1C=O ?
OUT: 1

IN: Cool, now CCCCC[C@H](CC(=O)NO)C(=O)N[C@H](C(=O)N1CCC[C@H]1CO)C(C)C
OUT: 1.01

IN: Next record, please: O=c1[nH]cnc2[nH]ncc12
OUT: 1.03

IN: Try C[C@@H]1CC2C3C[C@H](F)C4=CC(=O)C=C[C@]4(C)[C@@]3(F)[C@@H](O)C[C@]2(C)[C@@]1(O)C(=O)COC(=O)C(C)(C)C (stereo not given in full) next.
OUT: 1.01

====

- method: chemical genetic growth profiling, strain panel (AID 1159580)
- test.parameters: S. cerevisiae deletion strains, growth OD, locus YPL241C, strain CIN2, hits give low values
About 2,000 (36%) of roughly 5,500 compounds were called active. Not shown: some 18% with an inconclusive outcome. Some of the results follow.
Reported normalized growth values are given for each entry in this list.
Give the figure by itself; no unit, no explanation.

Before answering, review these 5 worked examples.
IN: For the molecule shown here, Cc1nc2ccccn2c(=O)c1CCN1CCC(C(=O)c2ccc(F)cc2)CC1 , give the reported normalized growth.
OUT: 1.02

IN: Okay, and O=C(O)c1ccccc1C(=O)Nc1ccc(S(=O)(=O)Nc2nccs2)cc1 ?
OUT: 0.999

IN: # iterate: O=c1[nH]cnc2[nH]ncc12
OUT: 1

IN: Can you handle CCCCSP(=O)(SCCCC)SCCCC next?
OUT: 1.02

IN: And what about the molecule COc1ccc(CCNC(=S)NCCc2ccc(OC)c(OC)c2)cc1OC ?
OUT: 1.08

Okay, next one:
IN: // lookup normalized growth for OC1(c2ccc(Cl)cc2)CSc2nc3cc(C(F)(F)F)ccc3n21 (stereo unspecified)
OUT: 1.04

====

normalized growth listing for selected compounds.
- method: chemical genetic growth profiling, strain panel (AID 1159580);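 note: tested at 20 µM; growth read once vehicle control cultures reached saturation at 30 °C; 1 = growth at the plate median or of vehicle wells; lower values mean less growth of the strain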
- test.parameters: S. cerevisiae deletion strains, growth OD, locus YER015W, strain faa2, hits give low values
Out of some 5,500 compounds screened, about 2,000 (36%) were called active. Roughly 18% stayed inconclusive and do not appear here. The list shows a part of the results.
Just the number, please.

Look over these answered cases.
IN: Endpoint output: normalized growth of CC(CCC(=O)O)[C@H]1CCC2C3C[C@H](O)[C@@H]4C[C@H](O)CC[C@]4(C)C3CC[C@@]21C (stereo not given in full) . Value?
OUT: 0.987

IN: Param item: CC(CCC(=O)O)[C@H]1CCC2C3C(C[C@H](O)[C@@]21C)[C@@]1(C)CC[C@@H](O)C[C@H]1C[C@H]3O (stereo not given in full)
OUT: 0.982

IN: How about CCCCS(=N)(=O)CCC(N)C(=O)O (stereo not given) ?
OUT: 0.996

---
IN: Recorded normalized growth for CCCCC[C@H](CC(=O)NO)C(=O)N[C@H](C(=O)N1CCC[C@H]1CO)C(C)C , please?
OUT: 1.02

IN: Please answer likewise for CC(CCC(=O)O)[C@H]1CCC2C3CC[C@@H]4CCCC[C@]4(C)C3CC[C@@]21C (stereo not given in full)
OUT: 1

====

- method: chemical genetic growth profiling, strain panel (AID 1159580);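 note: tested at 20 µM; growth read once vehicle control cultures reached saturation at 30 °C; 1 = growth at the plate median or of vehicle wells; lower values mean less growth of the strain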
- test.parameters: S. cerevisiae deletion strains, growth OD, locus YHR027C, strain rpn1
In all, about 5,500 compounds went through this assay and about 2,000 (36%) were called active. Not shown: some 18% with an inconclusive outcome. No stated cut-off is given here; in the data, active means normalized growth mostly below about 0.91 (no sharp cut-off); inconclusive means no clear call, values can overlap the other calls; inactive means mostly above about 0.92. The list shows a part of the results.
Allowed answers: Yes for active, No for inactive

IN: Test call, this compound: CC12CC3CC(C)(C1)CC(N)(C3)C2
OUT: No

IN: Continue with C[C@@H]1CC2C3C[C@H](F)C4=CC(=O)C=C[C@]4(C)[C@@]3(F)[C@@H](O)C[C@]2(C)[C@@]1(O)C(=O)COC(=O)C(C)(C)C (stereo partly specified)
OUT: No

IN: What about this compound? O=C(O)c1ccccc1C(=O)Nc1ccc(S(=O)(=O)Nc2nccs2)cc1
OUT: No

IN: And the next one, CN[C@@H]1[C@H](OC2[C@H](O[C@H]3[C@H](O)[C@@H](O)[C@H](N=C(N)N)[C@@H](O)[C@@H]3N=C(N)N)O[C@@H](C)[C@]2(O)C=O)O[C@@H](CO)[C@H](O)[C@H]1O (stereo partly specified) ?
OUT: No

IN: Check CO[C@]12C[C@@H](COC(=O)c3cncc(Br)c3)CN(C)[C@@H]1Cc1cn(C)c3cccc2c13 too.
OUT: No

IN: // same read-out, input: C=C[C@H]1CN2CC[C@H]1C[C@@H]2[C@H](O)c1ccnc2ccccc12
OUT: No

IN: Then this compound: COc1cc(OC)c(OC)cc1C=O
OUT: No

IN: Now try C=C1C2=CC(=O)O[C@@H](c3ccoc3)[C@]2(C)CCC1[C@@]1(C)C=CC(=O)C(C)(C)[C@@H]1CC(=O)OC (stereo partly specified) .
OUT: No

Next:
IN: Per the assay record, what outcome was assigned to S=P(N1CC1)(N1CC1)N1CC1 ?
OUT: No

IN: Same thing, different compound: COc1c2ccccc2nc2occc12
OUT: No

IN: Quick one: CC(CCC(=O)O)[C@H]1CCC2C3C(C[C@H](O)[C@@]21C)[C@@]1(C)CC[C@@H](O)C[C@H]1C[C@H]3O (stereo partly specified)
OUT: No

IN: And the next one, Nc1ccn(C2O[C@H](CO)[C@@H](O)[C@H]2O)c(=O)n1 (stereo partly specified) ?
OUT: No

IN: Moving on to c1ccc2nc(N3CCNCC3)ccc2c1
OUT: No

IN: Try this compound next: NS(=O)(=O)c1cc2c(cc1Cl)NC(C1CC3C=CC1C3)NS2(=O)=O (stereo unspecified)
OUT: No

IN: Also, CCN(CC)C(C)CN1c2ccccc2Sc2ccccc21 (stereo unspecified) please.
OUT: Yes

====

- method: chemical genetic growth profiling, strain panel (AID 1159580);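 note: tested at 20 µM; growth read once vehicle control cultures reached saturation at 30 °C; 1 = growth at the plate median or of vehicle wells; lower values mean less growth of the strain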
- test.parameters: S. cerevisiae deletion strains, growth OD, locus YGL253W, strain hxk2, hits give low values
The campaign covered roughly 5,500 compounds. About 2,000 (36%) were called active. Not shown: some 18% with an inconclusive outcome. The list shows a part of the results.
Below, each of the molecules is paired with its reported normalized growth value.

IN: I'd like to know its normalized growth. The molecule in question is O=c1cc(-c2ccc(O)cc2)oc2cc(O)cc(O)c12
OUT: 0.973 (inactive)

IN: Another molecule: COc1cc(C)c(C(=O)Oc2cc(C)c(C(=O)O)c(O)c2C)c(OC)c1C
OUT: 0.949 (inactive)

IN: Next molecule up: CCCC(C(=O)OCCN(CC)CC)(c1ccccc1)c1ccccc1
OUT: 1.01 (inactive)

IN: Also need O=[N+]([O-])c1cccc2cn[nH]c12 , thanks.
OUT: 0.99 (inactive)

IN: Also, O=c1cc(-c2cc(O)c(O)c(O)c2)oc2cc(O)cc(O)c12 please.
OUT: 0.948 (inactive)

IN: Record: NC(=O)c1ncn(C2O[C@H](CO)[C@@H](O)[C@H]2O)c1N (some centres undefined)
OUT: 1.04 (inactive)

Others:
IN: // lookup normalized growth for CC(=O)Nc1nnc(S(N)(=O)=O)s1
OUT: 1.01 (inactive)

IN: And then CCCCCC1C(=O)CCC1CC(=O)OC (centres undefined) , what is it?
OUT: 0.981 (inactive)

IN: What do you have for CC(=O)N=c1sc(S(N)(=O)=O)nn1C ?
OUT: 1.02 (inactive)

IN: What about CN(C)N=Nc1nc[nH]c1C(N)=O ?
OUT: 0.953 (inactive)

IN: Subsequent entry: CNC(=O)Oc1ccc2c(c1)[C@]1(C)CCN(C)[C@@H]1N2C
OUT: 0.989 (inactive)

IN: Request: CC(=O)O[C@H]1C[C@@H](OC(C)=O)C(C)(C)C2CC(=O)[C@]3(C)C(CC[C@@]4(C)[C@H](c5ccoc5)OC(=O)[C@H]5O[C@]543)[C@]21C (some centres undefined)
OUT: 0.988 (inactive)

IN: Okay, and CNCCCN1c2ccccc2CCc2ccccc21 ?
OUT: 0.996 (inactive)

IN: Let us now turn to CC1=C2[C@H]3OC(=O)[C@@H](C)[C@@H]3CC[C@@]2(C)C=CC1=O
OUT: 0.98 (inactive)

IN: Also, O=[N+]([O-])c1cccc2c(Br)[nH]nc12 please.
OUT: 0.988 (inactive)

IN: Field entry: O=c1cc(-c2ccc(O)cc2)oc2cc(O)ccc12
OUT: 0.98 (inactive)

IN: Entry to check: CCN(CCCc1ccccc1)CCCc1ccccc1
OUT: 0.978 (inactive)

IN: Please answer likewise for CN(C(=O)CN(CCO)CC(=O)N(C)C(C)(C)Cc1ccccc1)C(C)(C)Cc1ccccc1
OUT: 1.03 (inactive)

IN: Another molecule: CC(CN(C)C)CN1c2ccccc2Sc2ccccc21 (centres undefined)
OUT: 1.02 (inactive)
